Kindly state Th-T fluorescence, mean of three wells for each of the entries shown.
# system: Aβ42 (Homo sapiens, UniProt P05067)
# Sequence (P05067 672-713): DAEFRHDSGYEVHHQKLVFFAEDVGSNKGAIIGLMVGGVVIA
# assay.protocol: Th-T (thioflavin-T) assay of Aβ42 aggregation
# Type: biochemical
# condition.label: time-course reading M98; Supplementary Fig. 47 source data
Numbers only.

- molecule: "C=C1CCC2C(C)(CCC=C(C)C)C(O)CCC2(C)C1Cc1c(OC)oc(C)c(C)c1=O (stereo not shown) [Compound 11]"
  observed.property: "Th-T fluorescence, mean of three wells"
  reported.measurement: 3.55

Okay, here is my list. What is Th-T fluorescence, mean of three wells for each of these?
1. C=C1CCC2C(C)(CCC=C(C)C)C(O)CCC2(C)C1Cc1c(OC)oc(C)c(C)c1=O (stereo not shown) [Compound 15, viridoxin A hydrolysate]
2. C=C1CC[C@@H]2[C@](C)(CC[C@H]3O[C@H](C=C(C)C)C[C@@]23C)[C@@H]1Cc1c(OC)oc(CO)c(C)c1=O
3. C=C1CC[C@H]2[C@]3(C)C[C@H](C=C(C)C)O[C@H]3CC[C@]2(C)[C@@H]1Cc1c(OC)oc(CO)c(C)c1=O

1. 3.314
2. 4.216
3. 3.89

====

# system: Aβ42 (Homo sapiens)
# assay.protocol: Th-T (thioflavin-T) assay of Aβ42 aggregation
# Type: biochemical
# condition.label: time course, reading M67
observed.property: Th-T fluorescence, mean of three wells
Give bare numbers.

Use these answered entries as a reference point.
- compound: "C=C1CCC2C(C)(CC(=O)C=C(C)C)C(O)CCC2(C)C1Cc1c(OC)oc(C)c(C)c1=O (stereo not drawn) [Compound 25]"
  system: "Aβ42 (Homo sapiens)"
  Th-T fluorescence, mean of three wells: 3.725
- compound: "C=C1CC[C@H]2[C@]3(C)C[C@H](C=C(C)C)O[C@H]3CC[C@]2(C)[C@@H]1Cc1c(OC)oc(C)c(C)c1=O [Compound 24]"
  system: "Aβ42 (Homo sapiens)"
  Th-T fluorescence, mean of three wells: 4.11
- compound: "C=C1CC[C@H]2[C@]3(C)C[C@@H](C=C(C)C)O[C@H]3CC[C@]2(C)[C@@H]1Cc1c(O)c(C)c(C)oc1=O [Compound 5, subglutinol A]"
  system: "Aβ42 (Homo sapiens)"
  Th-T fluorescence, mean of three wells: 2.703

Okay, here is my list. What is Th-T fluorescence, mean of three wells for each of these?
1. C=C1CC[C@H]2[C@]3(C)C[C@H](C=C(C)C)O[C@H]3CC[C@]2(C)[C@@H]1Cc1c(O)c(C)c(C)oc1=O [Compound 6, subglutinol B]
2. C=C1CC[C@H]2[C@]3(C)C[C@@H](C=C(C)C)O[C@H]3CC[C@]2(C)[C@@H]1Cc1c(OC)oc(CO)c(C)c1=O [Compound 17]
3. C=C1CC[C@@H]2[C@](C)(CC[C@H]3O[C@H](C=C(C)C)C[C@@]23C)[C@@H]1Cc1c(O)c(C)c(C)oc1=O [Compound 10, higginsianin A]
4. C=C1CC[C@H]2[C@]3(C)C[C@H](C=C(C)C)O[C@H]3CC[C@]2(C)[C@@H]1Cc1c(OC)oc(CO)c(C)c1=O [Compound 18]
5. C=C1CCC2C(C)(CC(=O)C=C(C)C)C(O)CCC2(C)C1Cc1c(O)c(C)c(C)oc1=O (stereo not drawn) [Compound 7]
6. C=C1CCC2C(C)(CC(=O)C=C(C)C)C(O)CCC2(C)C1Cc1c(OC)oc(CO)c(C)c1=O (stereo not drawn) [Compound 19]
7. CC(C)=CCC/C(C)=C/CC/C(C)=C/CC/C(C)=C/Cc1c(O)c(C)c(C)oc1=O [Compound 2]

1: 3.159; 2: 3.7096; 3: 3.125; 4: 3.958; 5: 3.63; 6: 3.626; 7: 2.956

Okay, here is my list. What is Th-T fluorescence, mean of three wells for each of these?
1. C=C1CCC2C(C)(CCC=C(C)C)C(=O)CCC2(C)C1Cc1c(O)c(C)c(C)oc1=O (stereo not drawn) [Compound 8]
2. C=C1CCC2C3(C)CC(C=C(C)C)OC3CCC2(C)C1Cc1c(OC)oc(C)c(C)c1=O (stereo not drawn) [Compound 23]

[2.214, 3.974]
